// compounds with reported IC50 on IRAK1 (Homo sapiens, UniProt P51617), multi-publication
Sequence (P51617 whole entry): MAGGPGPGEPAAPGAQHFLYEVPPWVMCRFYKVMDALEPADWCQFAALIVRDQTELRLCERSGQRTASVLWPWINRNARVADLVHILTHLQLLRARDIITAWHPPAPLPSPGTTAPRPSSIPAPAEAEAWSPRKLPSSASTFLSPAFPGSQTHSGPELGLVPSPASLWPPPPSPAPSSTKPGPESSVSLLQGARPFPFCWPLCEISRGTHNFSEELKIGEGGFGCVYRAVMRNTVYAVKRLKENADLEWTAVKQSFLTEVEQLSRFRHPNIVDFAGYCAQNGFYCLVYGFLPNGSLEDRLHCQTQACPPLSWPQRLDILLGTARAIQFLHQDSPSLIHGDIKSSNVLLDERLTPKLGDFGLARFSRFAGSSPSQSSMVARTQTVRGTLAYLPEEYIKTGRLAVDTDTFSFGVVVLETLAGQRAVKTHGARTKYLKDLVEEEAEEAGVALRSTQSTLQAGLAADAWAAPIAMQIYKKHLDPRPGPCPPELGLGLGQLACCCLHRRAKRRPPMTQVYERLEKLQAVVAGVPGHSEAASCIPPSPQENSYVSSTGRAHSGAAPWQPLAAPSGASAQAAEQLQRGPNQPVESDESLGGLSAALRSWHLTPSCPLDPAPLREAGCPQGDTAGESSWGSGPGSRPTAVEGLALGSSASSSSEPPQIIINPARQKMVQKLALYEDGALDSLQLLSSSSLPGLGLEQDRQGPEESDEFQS

Take a look at these entries with their results.
Task: Request - read-out IC50 | tested on IRAK1 (Homo sapiens, UniProt P51617) | compound CN1CCOC(CNc2nc(-c3cccc(-c4cnn(C)c4)c3)ncc2-c2cnn(C)c2)C1 (stereo not shown)
Output: > 5000 nM

Task: Request - read-out IC50 | tested on IRAK1 (Homo sapiens, UniProt P51617) | compound "Cn1cc(-c2cccc(-c3ncc(-c4cnn(C)c4)c(NC[C@H](O)CO)n3)c2)cn1"
Output: 100 to 1000 nM

Task: Request - read-out IC50 | tested on IRAK1 (Homo sapiens, UniProt P51617) | compound Cn1cc(-c2cccc(-c3ncc(-c4cnn(C)c4)c(NC[C@H]4CCNC[C@H]4O)n3)c2)cn1 (racemic)
Output: > 5000 nM

Task: Request - read-out IC50 | tested on IRAK1 (Homo sapiens, UniProt P51617) | compound "CC[C@@H]1[C@H](F)C(=O)N[C@@H]1COc1nccc2cc3c(=O)[nH]cc(C(C)C)c3cc12"
Output: 77.4 nM

Task: Request - read-out IC50 | tested on IRAK1 (Homo sapiens, UniProt P51617) | compound Cn1cc(-c2cccc(-c3ncc(-c4cnn(C)c4)c(N[C@@H]4CCC[C@@H](O)[C@H]4O)n3)c2)cn1 (racemic)
Output: 100 to 1000 nM

Task: Request - read-out IC50 | tested on IRAK1 (Homo sapiens, UniProt P51617) | compound "C=CC(=O)N1CCC[C@H](C(=O)Nc2ccc(-c3ncc(-c4cccc(-c5ccn[nH]5)n4)s3)nc2)C1"
Output: 6.07 nM

Task: Request - read-out IC50 | tested on IRAK1 (Homo sapiens, UniProt P51617) | compound "Cn1cc(-c2cccc(-c3ncc(-c4cnn(C)c4)c(NCCN4CCOCC4)n3)c2)cn1"
Output: 1000 to 5000 nM

Task: Request - read-out IC50 | tested on IRAK1 (Homo sapiens, UniProt P51617) | compound "Cn1cc(-c2cccc(-c3ncc(-c4cnn(C)c4)c(N4C[C@H](N)CC(F)(F)C4)n3)c2)cn1"
Output: 1000 to 5000 nM

More entries:
Task: Request - read-out IC50 | tested on IRAK1 (Homo sapiens, UniProt P51617) | compound "FC(F)[C@H]1CNC[C@@H]1Nc1cccc(-c2cnc3ccc(C4CC4)nn23)n1"
Output: 3590 nM

Task: Request - read-out IC50 | tested on IRAK1 (Homo sapiens, UniProt P51617) | compound Cn1cc(-c2cccc(-c3ncc(-c4cnn(C)c4)c(NC[C@H]4CC[C@@H](O)C4)n3)c2)cn1 (racemic)
Output: 1000 to 5000 nM

Task: Request - read-out IC50 | tested on IRAK1 (Homo sapiens, UniProt P51617) | compound Cn1cc(-c2cccc(-c3ncc(-c4ccn(C)n4)c(NC4CC(F)C4)n3)c2)cn1 (stereo not shown)
Output: > 5000 nM

Task: Request - read-out IC50 | tested on IRAK1 (Homo sapiens, UniProt P51617) | compound "COc1ccc2nc(-c3cc(-c4cnn(CCCN(C)C)c4)cnc3N)[nH]c2c1"
Output: 100 to 10000 nM

Task: Request - read-out IC50 | tested on IRAK1 (Homo sapiens, UniProt P51617) | compound "Cn1cc(-c2cccc(-c3ncc(-c4cnn(C)c4)c(NC[C@H]4CCNC4)n3)c2)cn1"
Output: 1000 to 5000 nM

Task: Request - read-out IC50 | tested on IRAK1 (Homo sapiens, UniProt P51617) | compound c1cc(NC2CC3(CCNC3)C2)nc(-c2cnc3ccc(-c4cnn(C5CCOCC5)c4)nn23)c1 (stereo not shown)
Output: > 10000 nM

Task: Request - read-out IC50 | tested on IRAK1 (Homo sapiens, UniProt P51617) | compound "Cc1nnc(-c2cnc(-c3cccc(-c4cnn(C)c4)c3)nc2NC(C)C)s1"
Output: 100 to 1000 nM

Task: Request - read-out IC50 | tested on IRAK1 (Homo sapiens, UniProt P51617) | compound "C=CCc1c[nH]c(=O)c2cc3ccnc(OC[C@@H]4CCC(=O)N4)c3cc12"
Output: 6860 nM

Task: Request - read-out IC50 | tested on IRAK1 (Homo sapiens, UniProt P51617) | compound Cn1cc(-c2cccc(-c3ncc(-c4cnn(C)c4)c(NC4CCC(CN)CC4)n3)c2)cn1 (stereo not shown)
Output: 100 to 1000 nM

Task: Request - read-out IC50 | tested on IRAK1 (Homo sapiens, UniProt P51617) | compound "COc1cc2ncc(-c3nc(N[C@H]4CNCC[C@@H]4F)c(F)cc3F)n2nc1C1CC1"
Output: 5 nM

Task: Request - read-out IC50 | tested on IRAK1 (Homo sapiens, UniProt P51617) | compound "C=CC(=O)N1CCC[C@H](C(=O)Nc2ccc(NC(=O)c3csc(-c4ccn[nH]4)n3)cc2)C1"
Output: 609 nM

Task: Request - read-out IC50 | tested on IRAK1 (Homo sapiens, UniProt P51617) | compound Cn1cc(-c2cccc(-c3ncc(-c4cnn(C)c4)c(O[C@@H]4CCC[C@@H](N)[C@@H]4O)n3)c2)cn1 (racemic)
Output: < 100 nM
